Test system: HepG2
Assay: GSK_TCMDC: Percent inhibition of human HepG2 cell line. Test compounds present at 10uM.
Assay type: functional
We'd kindly ask you to apply these Inhibition classes: range 1 (below 9%), range 2 (9% to below 40%), range 3 (40% or more)

{"compound": "CN1CCN(Cc2ccc(-c3cc4c(Nc5ccc(OCc6cccc(F)c6)c(Cl)c5)ncnc4s3)[nH]2)CC1", "system-name": "HepG2", "assigned-class": "range 2"}
{"compound": "Br.CC1(C)N=C(N)N=C(N)N1OCc1cccc2c1ccc1ccccc12", "system-name": "HepG2", "assigned-class": "range 3"}
{"compound": "Cc1cccc(C(=O)N2CCN(Cc3cccc(NC(=O)c4cccs4)c3)CC2)c1.O=C(O)C(F)(F)F", "system-name": "HepG2", "assigned-class": "range 1"}
{"compound": "CCOC(=O)c1ccc(N=C2SC(=Cc3cc(Br)ccc3O)C(=O)N2C)cc1", "system-name": "HepG2", "assigned-class": "range 1"}
{"compound": "O=C(O)C(F)(F)F.O=S(=O)(NCCN1CCCC1)c1ccc(-c2ccc(CNC3Cc4ccccc4C3)cc2)s1", "system-name": "HepG2", "assigned-class": "range 3"}
{"compound": "O=C(/C=C/c1ccc(Cl)c(Cl)c1)NCCCCCN1CCC(CCCNC(=O)Nc2ccc(C(F)(F)F)cc2)CC1", "system-name": "HepG2", "assigned-class": "range 1"}
{"compound": "CCC(CC)(Cc1ccccc1)NC(=O)[C@H](CC(C)C)Nc1ccc(C#N)c2ccccc12.O=C(O)C(F)(F)F", "system-name": "HepG2", "assigned-class": "range 3"}
{"compound": "O=C(/C=C/c1ccc(Cl)c(Cl)c1)NCCCCCN1CCC(NC(=O)Nc2cc(Cl)ccc2Cl)CC1", "system-name": "HepG2", "assigned-class": "range 3"}
{"compound": "Cc1cc(NC(=O)c2ccco2)ccc1OC1CCN(Cc2ccc(F)cc2)CC1.O=C(O)C(F)(F)F", "system-name": "HepG2", "assigned-class": "range 1"}
{"compound": "COC(=O)C(C)(C)Cc1c(SC(C)(C)C)c2cc(C(C)C)ccc2n1Cc1ccc(Cl)cc1", "system-name": "HepG2", "assigned-class": "range 1"}
{"compound": "O=C(Nc1ccc(-c2nc3ccccc3[nH]2)cc1)c1ccc(Cl)c([N+](=O)[O-])c1", "system-name": "HepG2", "assigned-class": "range 1"}
{"compound": "COc1ccc(NC(=O)c2ccc(-c3cccc(OCc4ccccc4)c3)cc2)cc1N1CCN(C)CC1", "system-name": "HepG2", "assigned-class": "range 2"}
{"compound": "O=C(O)C(F)(F)F.c1ccc(CNCc2cccc(-c3cccc(-c4nc5ccccc5[nH]4)c3)c2)cc1", "system-name": "HepG2", "assigned-class": "range 2"}
{"compound": "CS(=O)(=O)c1ccc(CNCc2ccc(-c3ccc(-c4nc5cc(C(F)(F)F)ccc5[nH]4)s3)cc2)cc1.O=C(O)C(F)(F)F", "system-name": "HepG2", "assigned-class": "range 3"}
{"compound": "CCCNC(=O)C1Cc2c([nH]c3ccc(Br)cc23)C2(CCN(CCc3ccccc3)CC2)N1 (configuration not stated)", "system-name": "HepG2", "assigned-class": "range 2"}
{"compound": "CN(C)CCNCc1nc(-c2ccc3c(Nc4ccc(Oc5ccccc5)cc4)ccnc3c2)cs1", "system-name": "HepG2", "assigned-class": "range 1"}
